These entries and their values trace back to paper PMC9920298.

Answer each item with its documented Kd.
- assayed.target: GST-NSP16 SARS-CoV-2 (Severe acute respiratory syndrome coronavirus 2, UniProt P0DTD1)
One number for each entry, in µM.

Example cases with answers are listed next.
Give its Kd value. Item: Cc1ccc2ccccc2c1COc1ccc2c(-c3cc4ccccc4oc3=O)cc(=O)oc2c1 [ZINC2121012]
23.1

Give its Kd value. Item: O=c1cc(-c2cc3ccccc3oc2=O)c2ccc(OCc3cccc4ccccc34)cc2o1 [ZINC2129028]
60

Switching to the query record.
Give its Kd value. Item: COc1cccc2c(-c3cc4ccc(OCc5ccc6ccccc6c5)cc4oc3=O)cc(=O)oc12 [ZINC12880820]
29.1

---

- assayed.target: GST-NSP16 SARS-CoV-1 (Severe acute respiratory syndrome coronavirus, UniProt P0C6X7)
parameter.measured: pKd
Numbers only, as −log10 of the molar value.

Notebook entry, GST-NSP16 SARS-CoV-1 (Severe acute respiratory syndrome coronavirus, UniProt P0C6X7) assay: pKd of O=c1cc(-c2cc3ccccc3oc2=O)c2ccc(OCc3cccc4ccccc34)cc2o1 = ?
4.25

---

- protocol.details: Cell viability (resazurin) assay in normal lung fibroblasts
- condition.info: human, MRC-5 lung fibroblasts
parameter.measured: CC50 at 72 h
Give the number first and the unit second.

Give its CC50 at 72 h value. Item: O=c1cc(-c2cc3ccccc3oc2=O)c2ccc(OCc3cccc4ccccc34)cc2o1
18.5 µM

---

GST-NSP16 MERS-CoV (Middle East respiratory syndrome-related coronavirus): recorded Kd for assorted compounds
Sequence (K9N7C7 6776-7078 limits assumed): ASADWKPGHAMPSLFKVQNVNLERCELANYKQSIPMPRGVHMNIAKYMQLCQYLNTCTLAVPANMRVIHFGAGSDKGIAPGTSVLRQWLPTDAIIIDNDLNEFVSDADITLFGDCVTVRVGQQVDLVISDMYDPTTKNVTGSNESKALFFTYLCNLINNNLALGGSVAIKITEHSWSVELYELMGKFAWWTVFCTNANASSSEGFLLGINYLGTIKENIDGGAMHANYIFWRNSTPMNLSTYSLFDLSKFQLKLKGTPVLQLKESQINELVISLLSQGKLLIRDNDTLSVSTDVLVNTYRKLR
Numbers only, in µM.

Give its Kd value. Item: COc1cccc2c(-c3cc4ccc(OCc5ccc6ccccc6c5)cc4oc3=O)cc(=O)oc12
36.4

Switching to the query record.
Give its Kd value. Item: O=c1cc(-c2cc3ccccc3oc2=O)c2ccc(OCc3cccc4ccccc34)cc2o1
48.1
